biological target: Tubulin (Bos taurus, UniProt Q6B856+Q862L2+Q862F3); test: Inhibition of tubulin polymerization using bovine brain tubulin; assay type: functional
Experimental readout: IC50 (µM)

* COc1ccc(CNc2nc(NCc3ccc(OC)cc3)c3ncn(C(C)C)c3n2)cc1 | 8
* COc1ccc(CNc2nc(NCc3ccc(OC)cc3)c3[nH]cnc3n2)cc1 | 50
* CCn1cnc2c(NCc3ccc(OC)cc3)nc(NCc3ccc(OC)cc3)nc21 | 25
* COc1ccc(CNc2nc(NCc3ccc(OC)cc3)c3ncn(C4CCCCC4)c3n2)cc1 | 2
* COc1ccc(CNc2nc(NCc3ccc(OC)cc3)c3ncn(C4CCNCC4)c3n2)cc1 | 5

a. COc1ccc(CNc2nc(NCc3ccc(OC)cc3)c3ncn(C4CCC4)c3n2)cc1
b. COc1ccc(CNc2nc(NCc3ccc(OC)cc3)c3ncn(C4CCCC4)c3n2)cc1
c. COc1ccc(CNc2nc(NCc3ccc(OC)cc3)c3ncn(C)c3n2)cc1
List the 3 entries from lowest IC50 to highest IC50 value. Record the ranking as a list of labels in the requested order. b, a, c

a. COc1ccc(CNc2nc(NCc3ccc(OC)cc3)c3ncn(C4CCOC4)c3n2)cc1 (stereo not given)
b. COc1ccc(CNc2nc(NCc3ccc(OC)cc3)c3ncn(C4CCC(O)CC4)c3n2)cc1 (stereo not given)
Please let me know which one, a or b , has a lower measured IC50 value. Field: selected label. Fill in the label of the entry you choose. b
(b: 3 µM, a: 5 µM)
